molecular target: K-Ras^G12C : hSOS1 interaction (Homo sapiens, UniProt Q07889); assay: Biochemical assay 1: K-Ras^G12C interaction assay with hSOS1 (HTRF); format: binding; details: read-out: Assay 1 (KRAS-SOS Interaction) activity expressed as IC50
measured.quantity: IC50 (nM)
Report as a plain number; the unit nM is understood.

COc1cc2nc(C)nc(NC(C)c3ccc(-c4ccccc4[C@H](C)N)s3)c2cc1OC (stereo in doubt)	195

Query: Can you share its IC50? I mean this compound: COc1cc2nc(C)nc(N[C@H](C)c3cccc(-c4ccc(NC(=O)OC(C)(C)C)cc4)c3)c2cc1OC
Response: 4700

Query: Can you share its IC50? I mean this compound: COc1cc2nc(C)nc(NC(C)c3c(F)ccc4[nH]ncc34)c2cc1OC (stereo not shown)
Response: 6500

Query: Can you share its IC50? I mean this compound: C/C=C/c1cccc([C@@H](C)Nc2nc(C)nc3cc(OC)c(OC)cc23)c1
Response: 1080

* * *

Each item that follows carries a reported IC50.
target: human SOS1 (loading of human K-Ras^G12C-GDP with fluorescent GTP-analog) (Homo sapiens); experiment: Biochemical assay 3: K-Ras^G12C activation assay by hSOS1 (HTRF); conditions: E-notation values; unit inferred; read-out: Assay 3 (KRAS-Activation) IC50
Report as a plain number; the unit nM is understood.

Cc1nc(NC(C)c2ccc(Br)s2)c2cc(N3CCN(Cc4ccccc4)C(=O)C3)ccc2n1 (centres unmarked)	15100
COc1cc2nc(C)nc(NC(C)c3ccc(-c4ccc(F)cc4CNC(=O)CO)s3)c2cc1OC (centres unmarked)	748
Cc1nc(NC(C)c2ccc(-c3ccccc3CN(C)C)s2)c2cc(N3CCN(Cc4cccnc4)CC3)ccc2n1 (centres unmarked)	31.5
Cc1nc(NC(C)c2ccc(-c3ccccc3CN(C)C)s2)c2cc(NC(=O)N(C)C)ccc2n1 (centres unmarked)	921
COc1cc2nc(C)nc(NC(C)c3ccc(-c4ccc(C5CC5)cc4CN(C)C)s3)c2cc1OC (centres unmarked)	69

From here, focus on the item given below.
Query: Can you share its IC50? I mean this compound: COc1cc2nc(C)nc(NC(C)c3cc(C)c(-c4ccccc4CN(C)C)s3)c2cc1OC (centres unmarked)
Response: 76.6

* * *

target: human SOS1 (loading of human K-Ras^G12C-GDP with fluorescent GTP-analog) (Homo sapiens); experiment: Biochemical assay 3: K-Ras^G12C activation assay by hSOS1 (HTRF); conditions: no GTP; read-out: Assay 3 (KRAS-Activation by SOS no GTP) activity expressed as IC50
Each item that follows carries a reported pIC50.
// scale note: pIC50 = -log10(conc_M); give the bare number

COc1cc2nc(C)nc(NC(C)c3ccc(-c4cscc4C#N)s3)c2cc1OC (centres unmarked) [Example 287]	5.24
COc1cc2nc(C)nc(NC(C)c3ccc(-c4ccccc4CN4CCN(C)CC4)s3)c2cc1OC (centres unmarked) [Example 308]	6.66
COc1cc2nc(C)nc(NC(C)c3c(C)nc4ccccn34)c2cc1OC (centres unmarked) [Example 26]	5.16
COc1cc2nc(C)nc(NC(C)c3ccc(-c4cnn(CCO)c4)s3)c2cc1OC (centres unmarked) [Example 218]	5.42
COc1cc2nc(C)nc(NC(C)c3ccc(-c4ccc(F)cc4CNC(C)=O)s3)c2cc1OC (centres unmarked) [Example 307]	6.11

Query: Can you share its pIC50? I mean this compound: COc1cc2nc(C)nc(NC(C)c3ccc(-c4ccccc4[C@@H](C)N)s3)c2cc1OC (stereo in doubt) [Example 359]
Response: 6.52

Query: Can you share its pIC50? I mean this compound: CCCNC(=O)c1ccc(-c2cccc([C@@H](C)Nc3nc(C)nc4cc(OC)c(OC)cc34)c2)cc1 [Example 73]
Response: 6.31
